Entries and their In vitro Viability HepG2 values follow.
Tested on: Hep G2 cells
Assay: In vitro toxicity (CellTiter-Glo cell viability), Hep G2;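 further: percent of untreated cells luminescence signal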
Format: cell-based
Settings: cirRNA (SEQ ID NO: 1) LNPs; Hep G2 cells

compound | In vitro Viability HepG2 (%)
CCCCCCOC(=O)CCCCCCCCCCN(CCCCCCCCCCC(=O)OCCCCCC)CCOC(=O)NCCN1CCOCC1 | 16
CCCCC/C=C\C/C=C\CCCCCCCCN(CCCCCCCC(=O)OC(CCCCCCCC)CCCCCCCC)CCCOC(=O)NCc1ncc[nH]1 | 91
CCCCCCCCCCC(CCCCCCCC)COC(=O)CCCCCN(CCCCCC(=O)OCC(CCCCCCCC)CCCCCCCCCC)CCOC(=O)NCCN1CCN(C)CC1 (stereo not shown) | 57
CCCCCCCCCC(=O)OCCCCCCCCN(CCCCCCCCOC(=O)CCCCCCCCC)CCOC(=O)NCCN1CCCC1 | 96
CCCCCCCCCC(=O)OCCCCCCCCN(CCCCCCCCOC(=O)CCCCCCCCC)CCOC(=O)NCCN1CCN(C)CC1 | 94
CCCCCCCCCC(=O)OCCCCCCCN(CCCCCCCCOC(=O)C(CCCCCC)CCCCCCCC)CCOC(=O)NCCCN(C)C (stereo not shown) | 94
CCCCCCCCCC(=O)OCCCCCCCCN(CCCCCCCCOC(=O)CCCCCCCCC)CCOC(=O)NCCN(C)C | 94
